Listing: Inhibition of selected compounds
system: Candida albicans; conditions: 20 µM
Description: Antifungal activity against Candida albicans ATCC 90028 (CO-ADD:FG_001); MIC in YNB media using NBS plates, by OD630
Measured potencies and affinities stand elsewhere.
Reply with just the number (in %).

Recorded result, O=C(NCCN1CCCC1)c1cc(NCCCCN2CCC(F)(F)CC2)nc2ccc(Cl)cc12 , Inhibition: 2.73

Recorded result, CC(=O)Nc1ccc(NC(=O)c2cc(-c3cc(Cl)ccc3O)n[nH]2)cc1 , Inhibition: 54.8

Further cases:
Recorded result, Cc1cc(Cl)ccc1NC(=O)CCc1ccc(S(=O)(=O)NCC(C)C)cc1 , Inhibition: 1.81

Recorded result, CC(C)c1ncc(-c2ccncc2)c([C@H]2CC[C@H](CNC(=O)c3cccnc3)CC2)n1 , Inhibition: 1.5

###

Listing: Inhibition of selected compounds
test system: Cryptococcus neoformans; settings: Concentration 20 uM; ASSAY_TEST Inhibition of Fungal Growth; detection method Resazurin; Absorption (OD600-OD570); plate type 384well; NBS; CORNING #3640
Description: Antifungal activity against Cryptococcus neoformans H99 ATCC 208821 (CO-ADD:FG_002); MIC in YNB media using NBS plates, by Resazurin OD(600-570)
Measured potencies and affinities stand elsewhere.
Reply with just the number (in %).

Case Cc1cccc(NC(=O)c2cc(S(=O)(=O)N(C)c3ccc(F)cc3)ccc2Cl)n1 , Cryptococcus neoformans, Inhibition recorded as -4.89

Case O=C(OCc1ccccc1)N1CCC(c2cc(-c3ccncc3)c(-c3ccc(F)cc3)[nH]2)CC1 , Cryptococcus neoformans, Inhibition recorded as -11.48

Case Nc1ncnc2c1ncn2C[C@@H](O)[C@@H](O)C(=O)O , Cryptococcus neoformans, Inhibition recorded as -6.54

Case Cc1nnc(NCc2cccc(Cl)c2)c2ccccc12 , Cryptococcus neoformans, Inhibition recorded as -11.95

Case O=C(Nc1cccc(Cl)c1)c1cnc(N2CCN(c3ccncc3)CC2)c(Cl)c1 , Cryptococcus neoformans, Inhibition recorded as -9.48

Case CC1CCCN(C(=O)C(C)Nc2cc(Cl)ccc2N2CCOCC2)C1 (configuration not stated) , Cryptococcus neoformans, Inhibition recorded as -4.76

Further cases:
Case O=C(Nc1cccc(-c2ccc(NCCCN3CCCC3)nc2)c1)c1ccccc1 , Cryptococcus neoformans, Inhibition recorded as 16.14

###

system: Klebsiella pneumoniae; conditions: Concentration 20 uM; ASSAY_TEST Inhibition of Bacterial Growth; detection method Absorption (OD600); MEDIA CAMHB; plate type 384well; NBS; CORNING #3640; time 18 hr
Description: Antibacterial activity against Klebsiella pneumoniae MDR ATCC 70063 (CO-ADD:GN_003); MIC in CAMBH media using NBS plates, by OD(600)
Potency and affinity values are given separately.
recorded metric: Inhibition (%)
Reply with just the number (in %).

Worked cases, Inhibition given:
Recorded result, CC(C)(C)C(=O)N(CCCCCCN1C[C@H](O)[C@@H](O)[C@H](O)[C@H]1CO)C1CCCCCC1 , Inhibition: 7.47

Recorded result, Cc1nc2ccccn2c1C(=O)NCc1ccc(Cl)cc1 , Inhibition: 17.8

Now let's try a different one.
Recorded result, c1ccc(Oc2ccc(-c3cc(CN4CCOCC4)[nH]n3)cc2)cc1 , Inhibition: 7.99

###

tested on: Cryptococcus neoformans; conditions: Concentration 20 uM; ASSAY_TEST Inhibition of Fungal Growth; detection method Resazurin; Absorption (OD600-OD570); plate type 384well; NBS; CORNING #3640
Results with a measured potency or affinity are listed apart.
Listing: Inhibition of selected compounds
Reply with just the number (in %).

Worked cases, Inhibition given:
Recorded result, COc1cc(OC)cc(C(=O)NCC2Cc3cc(Cl)cc(-c4ccncc4)c3O2)c1 (centres undefined) , Inhibition: -5.78

Recorded result, CN1CCN(c2cc(-c3ccc(F)cc3)nc(-c3ccncc3)n2)CC1 , Inhibition: -11.56

Recorded result, COc1nc2ccc(Br)cc2cc1[C@@H](c1ccccc1)[C@@](O)(CCN(C)C)c1cccc2ccccc12.O=C(O)C(F)(F)F , Inhibition: 56.58

Now let's try a different one.
Recorded result, CCOc1ccccc1NC(C)C(=O)Nc1cc(C(F)(F)F)ccc1N1CCOCC1 (centres undefined) , Inhibition: -7.7

###

test system: Cryptococcus neoformans; settings: Concentration 20 uM; ASSAY_TEST Inhibition of Fungal Growth; detection method Resazurin; Absorption (OD600-OD570); plate type 384well; NBS; CORNING #3640
Results with a measured potency or affinity are listed apart.
Listing: Inhibition of selected compounds
Reply with just the number (in %).

Worked cases, Inhibition given:
Recorded result, CC(Oc1cccc(Cl)c1)C(=O)Nc1ccc2oc(-c3ccncc3)nc2c1 (centres undefined) , Inhibition: -15

Recorded result, COc1cc(NC(=O)Cc2nn(C)c(=O)c3ccccc23)ccc1Cl , Inhibition: -0.85

Recorded result, Nc1nc(N)c2c3c(sc2n1)CN(Cc1ccccc1)CC3 , Inhibition: -1.76

Recorded result, COc1ccc(OC(C)C(=O)Nc2ccc(Cl)cc2C)cc1 (centres undefined) , Inhibition: 5.96

Recorded result, Cc1cc(C)n(-c2ccc(NC(=O)C3CCN(Cc4cnc(C)s4)CC3)cc2)n1 , Inhibition: -6.76

Recorded result, CC1CCCCN1C(=O)NCCc1coc(-c2ccc(F)cc2)n1 (centres undefined) , Inhibition: -14.62

Recorded result, COc1ccc(C2=NN(C3CCCCCC3)C(=O)C2(C)C)cc1OCCCCOc1ccc(-c2nn[nH]n2)cc1 , Inhibition: -17.73

Recorded result, COc1cc(Br)cc2cc(C(=O)Nc3cccc(C(F)(F)F)c3)c(=O)oc12 , Inhibition: -6.76

Further cases:
Recorded result, CN1CCN(c2nccc3nc(-c4ccc(F)c(F)c4)[nH]c23)CC1 , Inhibition: -6.31

Recorded result, C[C@H](C(N)=O)N1CCCC[C@@H]1c1ccc(OCc2cccc(F)c2)cc1 , Inhibition: -6.98

Recorded result, O=C(NCCc1ccn(-c2ccccc2)n1)C1CCCCC1 , Inhibition: -9.22

Recorded result, COC(=O)c1cccc2oc(-c3cccc(OC)c3NC(=O)c3cc(-c4ccccc4)on3)nc12 , Inhibition: -3.51

Recorded result, O=C1N(Cc2cc3ccccc3s2)CC2CN(Cc3ccccc3)CCN12 (centres undefined) , Inhibition: -4.73

Recorded result, O=C(c1ccc(NCCO)cc1)C1C[C@H]1c1ccc(Cl)cc1 (some centres undefined) , Inhibition: 2.16

###

tested on: Cryptococcus neoformans; conditions: Concentration 20 uM; ASSAY_TEST Inhibition of Fungal Growth; detection method Resazurin; Absorption (OD600-OD570); plate type 384well; NBS; CORNING #3640
Entries with a potency or affinity are not part of this list.
Listing: Inhibition of selected compounds
Reply with just the number (in %).

Worked cases, Inhibition given:
Recorded result, O=C(CN1CCOCC1)Nc1ccc2ncnc(Nc3ccc(OCc4cccc(F)c4)c(Cl)c3)c2c1 , Inhibition: -1.06

Recorded result, Cc1noc(C)c1COc1cccc(C(=O)N=c2[nH]cccc2C)c1 , Inhibition: -9.25

Now let's try a different one.
Recorded result, COc1ccc(S(=O)(=O)Nc2ccc(CN3CCN(C(=O)c4cccc(C#N)c4)CC3)cc2)cc1 , Inhibition: -8.14

###

tested on: Klebsiella pneumoniae; details: Concentration 20 uM; ASSAY_TEST Inhibition of Bacterial Growth; detection method Absorption (OD600); MEDIA CAMHB; plate type 384well; NBS; CORNING #3640; time 18 hr
Measured potencies and affinities stand elsewhere.
Listing: Inhibition of selected compounds
# do not omit the unit; it follows the number

Recorded result, O=C(CN1CCOCC1)Nc1ccc2ncnc(Nc3ccc(OCc4cccc(F)c4)c(Cl)c3)c2c1 , Inhibition: 11.31%

Recorded result, COc1cccc(OC)c1C(=O)Nc1ccc(Cl)c(-c2nc3ccccc3s2)c1 , Inhibition: 2.41%

Recorded result, CCc1nc2ccc(Cl)cn2c1C(=O)NCc1ccc(N2CCC(c3ccc(OC(F)(F)F)cc3)CC2)cc1 , Inhibition: 18.33%

Recorded result, CCOc1ccc(OCC(=O)Nc2cc(C)cc(C)c2)cc1 , Inhibition: 6.85%

Recorded result, CCOc1ccccc1NC(C)C(=O)Nc1cc(C(F)(F)F)ccc1N1CCOCC1 (centres undefined) , Inhibition: 14.66%

Further cases:
Recorded result, CN(C)c1cc(NC(=O)Nc2ccccc2)c2ccccc2n1 , Inhibition: -9.89%

Recorded result, NCC(=O)N1CCn2c(nc(-c3ccccc3)c2Nc2ccc3c(c2)OCO3)C1 , Inhibition: 4.52%

Recorded result, O=C(NCc1cc(Cl)cc(Cl)c1)c1c(C(F)(F)F)nc2ccccn12 , Inhibition: 15.19%

###

Listing: Inhibition of selected molecules
system: Candida albicans; conditions: 20 µM
Results with a measured potency or affinity are listed apart.
Reply with just the number (in %).

Worked cases, Inhibition given:
Recorded result, CC(C)(C(=O)Nc1ccc(F)cc1)n1cc(-c2ccccc2F)cn1 , Inhibition: 7.41

Recorded result, CC(C)=CCC/C(C)=C\CNCCNC1C2CC3CC(C2)CC1C3 (configuration not stated) , Inhibition: 2.31

Recorded result, Cc1nc2ccccn2c1C(=O)NCc1ccc(Cl)cc1 , Inhibition: 2.86

Recorded result, c1ccc(Oc2ccc(-c3cc(N4CCOCC4)[nH]n3)cc2)cc1 , Inhibition: 5.83

Recorded result, Cc1ccc2nc(C)c(-c3ccn(Cc4ccccc4)n3)n2c1 , Inhibition: 3.75

Further cases:
Recorded result, O=C(NCc1cc(Cl)cc(Cl)c1)c1c(C(F)(F)F)nc2ccccn12 , Inhibition: 8.03

Recorded result, COc1ccc(-c2cnc3cnc(-c4cccc(OC(C)C)c4)cn23)cc1 , Inhibition: 11.6

Recorded result, COc1cccc(-c2cc3c(Nc4cccnc4)nccc3[nH]2)c1 , Inhibition: 3.5

Recorded result, CCc1ccc(C(NCc2nc(N)nc(N(C)C)n2)C(C)C)cc1 (configuration not stated) , Inhibition: 5.01

FYI, the data here is from ChEMBL document CHEMBL4513149.
